Target: mUSP18 (Mus musculus)
Construct: (46-368); His-tag (N); made in house
Sequence (Q9WTV6 46-368): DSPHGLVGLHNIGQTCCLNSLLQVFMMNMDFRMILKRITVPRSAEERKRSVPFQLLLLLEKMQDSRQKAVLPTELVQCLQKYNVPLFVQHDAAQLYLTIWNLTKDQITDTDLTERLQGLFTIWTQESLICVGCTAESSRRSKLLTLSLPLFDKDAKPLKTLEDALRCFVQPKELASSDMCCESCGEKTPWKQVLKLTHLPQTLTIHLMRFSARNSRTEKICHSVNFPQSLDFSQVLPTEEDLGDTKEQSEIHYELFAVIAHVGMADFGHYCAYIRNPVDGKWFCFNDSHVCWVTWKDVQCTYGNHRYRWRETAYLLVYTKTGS
Assay: High-throughput screening, ISG15ct-RhoMP, single dose 1.25 µM
Assay type: biochemical, murine
Conditions: crude in-plate synthesized compound, 1.25 µM assuming full conversion; read-out: %inhibition mUSP18
// reported inhibition at 1.25 µM for each item listed

Field: example entries. Status: answers known.
INSERT INTO measurements (smiles_input, target_under_test, endpoint_label, endpoint_value) VALUES
  ('N#CN1CC[C@@H](NC(=O)CCN(Cc2ccccc2)S(=O)(=O)c2c(Cl)cccc2Cl)C1', 'mUSP18 (Mus musculus)', 'inhibition at 1.25 µM', '74.1%'),
  ('N#CN1CC[C@@H](NC(=O)c2cc(-c3cccc(Cl)c3)no2)C1', 'mUSP18 (Mus musculus)', 'inhibition at 1.25 µM', '~90%');

Field: next compound
Fill in inhibition at 1.25 µM for record `N#CN1CC[C@@H](NC(=O)c2ncoc2-c2cccs2)C1`
24.1%

---

Target: mUSP18 (Mus musculus)
Construct: (46-368); His-tag (N); made in house
Assay: High-throughput screening, ISG15ct-RhoMP, single dose 1.25 µM
Assay type: biochemical, murine
Conditions: mUSP18 %inhibition; carboxylic acid (CA) building block alone; read-out: %inh CA only
endpoint_label: inhibition at 1.25 µM (%)
# number only, unit % dropped from output

INSERT INTO assay_data (smiles_input, target_under_test, endpoint_value) VALUES
  ('O=C(O)Cc1coc(-c2cccs2)n1', 'mUSP18 (Mus musculus)', 8.99),
  ('O=C(O)CCn1ccc(C(=O)N2CCCC2)n1', 'mUSP18 (Mus musculus)', -2.83),
  ('O=C(O)c1cc(C2CCC2)on1', 'mUSP18 (Mus musculus)', 1.15),
  ('O=C(O)[1C@@H]1CCO[1C@H]1c1ccccc1', 'mUSP18 (Mus musculus)', 12.2),
  ('O=C(O)c1snnc1-c1ccc(Br)cc1', 'mUSP18 (Mus musculus)', 9.01);

Field: next molecule
Fill in inhibition at 1.25 µM for record `O=C(O)Cc1cnn(-c2ccccc2)n1`
-3.64

---

// reported inhibition at 1.25 µM for each item listed
Target: mUSP18 (Mus musculus)
Construct: (46-368); His-tag (N); made in house
Assay: High-throughput screening, ISG15ct-RhoMP, single dose 1.25 µM
Assay type: biochemical, murine
Details: mUSP18 %inhibition; carboxylic acid (CA) with coupling reagents DIC/HOBT; read-out: %inh CA + DIC/HOBT
# number only, unit % dropped from output

INSERT INTO measurements (compound, endpoint_value) VALUES
  ('O=C(O)c1ccc(-c2ccccn2)s1', 3.46);

Fill in inhibition at 1.25 µM for record `Cn1cc(-c2cc(C(=O)O)n[nH]2)cn1`
-1.62

Fill in inhibition at 1.25 µM for record `O=C(O)CCN(Cc1ccccc1)S(=O)(=O)c1c(Cl)cccc1Cl`
13.9

Fill in inhibition at 1.25 µM for record `O=C(O)c1nc(N2CCOCC2)ncc1Cl`
-1.69

Fill in inhibition at 1.25 µM for record `O=Cc1ccccc1C(=O)O`
-8.39

Fill in inhibition at 1.25 µM for record `CCOc1oc(-c2ccco2)nc1C(=O)O`
1

Fill in inhibition at 1.25 µM for record CCC(C(=O)O)n1nnc(-c2ccsc2)n1 (stereo not drawn)
12.2

Fill in inhibition at 1.25 µM for record `O=C(O)C(F)(F)n1cc(-c2ccccc2)nn1`
3.17

Fill in inhibition at 1.25 µM for record `O=C(O)c1cnc(-c2cccs2)s1`
0.91

Fill in inhibition at 1.25 µM for record `O=C(O)c1cc(-n2ccnc2)ccn1`
10.8

Fill in inhibition at 1.25 µM for record `Cc1c[nH]c(=O)n1-c1cccc(C(=O)O)c1`
-2.23

Fill in inhibition at 1.25 µM for record `O=C(O)c1ccc(CBr)cc1`
-11.3

Fill in inhibition at 1.25 µM for record `O=C(O)c1ccc(Cn2cncn2)cc1`
2.23

Fill in inhibition at 1.25 µM for record `O=C(O)c1csc(-c2ccccn2)n1`
6.54

Fill in inhibition at 1.25 µM for record `O=C1CCC(=O)N(c2ccc(C(=O)O)cc2)N1`
14.4

Fill in inhibition at 1.25 µM for record `Cc1nc(-c2c[nH]c(C(=O)O)c2)cs1`
52.7

Fill in inhibition at 1.25 µM for record O=C(O)C(CCc1ccccc1)c1ccccc1 (stereo not drawn)
-1.15

Fill in inhibition at 1.25 µM for record `O=C(O)C1CCN(c2ncccn2)CC1`
-12.3

Fill in inhibition at 1.25 µM for record O=C(O)C1CC(=O)N(C2CCCCCC2)C1 (stereo not drawn)
4.63
